Known IC50 at 72 h of a selection of compounds
- procedure.summary: MTT cytotoxicity assay, MRC-5 normal cells
- condition.notes: human, MRC-5 fetal lung fibroblast cells (normal cells)
// note: answer is a bare numeric in µM

compound="[NH2][Pt]([NH2])([Cl])([Cl])([O]C(=O)COc1ccc(/C=C/C(=O)c2ccc(Cl)c(Cl)c2)cc1)[O]C(=O)COc1ccc(/C=C/C(=O)c2ccc(Cl)c(Cl)c2)cc1 [chalcoplatin]" measured_attribute="IC50 at 72 h" data_value=9

Incoming: Identify IC50 at 72 h associated with the compound [NH2][Pt]([NH2])([OH])([Cl])([Cl])[O]C(=O)COc1ccc(/C=C/C(=O)c2ccc(Cl)c(Cl)c2)cc1 [monochalcoPt(IV)]
Outgoing: 0.11
